test system: hepatocytes; assay: Metabolic stability assay in hepatocyte suspension; format: in vitro ADME; settings: 1 μM test compound, Table 4
property_name: QH (%)

P. CN(C)C(=O)c1ccc(N2CCN(c3nccc(COC(=O)NC(=N)N)c3F)CC2)cc1
Q. CC(=O)c1ccc(N2CCN(c3nccc(COC(=O)NC(=N)N)c3F)CC2)nc1
Incoming: Between P and Q , which one shows the larger QH value? Selection: enter the item's label.
Outgoing: Q

a. COc1ncc(N2CCN(c3nccc(COC(=O)NC(=N)N)n3)CC2)cn1
b. N#Cc1ccc(N2CCN(c3nccc(COC(=O)NC(=N)N)c3F)CC2)nc1
Incoming: Could you please tell me which of these two has the higher QH: a or b ? Kindly give the label for the entry you pick.
Outgoing: b

###

target: AOC3 (Homo sapiens (Human)); experiment: MAO-Glo AOC3 assay (recombinant CHO cells overexpressing AOC3); format: biochemical; settings: Table 1, read-out: AOC3 IC50
property_name: IC50 (nM)

# count of solved cases: 4
molecule	system_name	measure_unit	IC50
CN(C)Cc1ccc(C2CCN(c3nccc(COC(=O)NC(=N)N)c3F)CC2)cc1 [Example 1.090]	AOC3 (Homo sapiens (Human))	nM	10
N=C(N)NC(=O)OCc1ccnc(N2CCN(c3ccc(Cl)cc3)CC2)c1F [Example 1.077]	AOC3 (Homo sapiens (Human))	nM	7
N=C(N)NC(=O)OCc1ccnc(N2CCC(N3CC[S+]([O-])CC3)CC2)c1F [Example 1.080]	AOC3 (Homo sapiens (Human))	nM	86
N=C(N)NC(=O)OCc1ccnc(N2CCC(c3ncc(Cl)cn3)CC2)c1F [Example 1.079]	AOC3 (Homo sapiens (Human))	nM	11

P. Cc1cccc(N2CCN(c3nccc(COC(=O)NC(=N)N)c3F)CC2)c1 [Example 1.031]
Q. N=C(N)NC(=O)OCc1ccnc(N2CC=C(c3ncco3)CC2)c1F [Example 1.004]
R. N=C(N)NC(=O)OCc1ccnc(N2CCC(N3CCOC3=O)CC2)c1F [Example 1.026]
S. N=C(N)NC(=O)OCc1ccnc(N2CCN(c3nccs3)CC2)c1F [Example 1.024]
T. N#CC1(c2ccccc2)CCN(c2nccc(COC(=O)NC(=N)N)c2F)CC1 [Example 1.050]
Incoming: Exam item: list the entries in increasing order of IC50. Give the order by naming the labels one after another as requested.
Outgoing: T, P, S, Q, R
(T: 2 nM, P: 9 nM, S: 18 nM, Q: 38 nM, R: 111 nM)

###

target: AOC3 (Homo sapiens (Human), UniProt Q16853); assay: MAO-Glo AOC3 assay (recombinant CHO cells overexpressing AOC3); format: biochemical; conditions: Table 1, read-out: AOC3 IC50
Sequence (Q16853 whole entry): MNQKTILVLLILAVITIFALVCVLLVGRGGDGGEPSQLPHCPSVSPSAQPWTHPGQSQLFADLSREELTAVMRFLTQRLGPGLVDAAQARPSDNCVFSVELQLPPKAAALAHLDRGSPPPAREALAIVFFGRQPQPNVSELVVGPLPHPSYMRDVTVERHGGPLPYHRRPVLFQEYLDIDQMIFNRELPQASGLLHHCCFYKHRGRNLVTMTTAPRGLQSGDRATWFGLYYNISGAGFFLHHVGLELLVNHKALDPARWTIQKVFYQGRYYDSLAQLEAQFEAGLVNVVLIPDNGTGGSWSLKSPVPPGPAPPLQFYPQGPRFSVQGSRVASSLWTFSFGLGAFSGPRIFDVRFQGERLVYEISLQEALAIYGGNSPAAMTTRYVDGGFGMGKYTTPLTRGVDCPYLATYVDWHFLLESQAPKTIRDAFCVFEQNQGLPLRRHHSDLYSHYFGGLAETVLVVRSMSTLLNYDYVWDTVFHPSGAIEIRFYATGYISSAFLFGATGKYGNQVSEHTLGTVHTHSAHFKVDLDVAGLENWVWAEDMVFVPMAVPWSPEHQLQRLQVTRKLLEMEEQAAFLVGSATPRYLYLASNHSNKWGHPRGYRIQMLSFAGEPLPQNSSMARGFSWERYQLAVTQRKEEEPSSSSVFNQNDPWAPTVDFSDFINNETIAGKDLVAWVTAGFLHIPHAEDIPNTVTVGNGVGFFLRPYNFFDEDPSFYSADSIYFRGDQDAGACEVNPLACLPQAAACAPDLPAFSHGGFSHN
pIC50: −log10 of the molar value.
property_name: pIC50

# annotated cases, reported pIC50 shown
compound	pIC50
CN(C)C(=O)c1ccc(N2CCN(c3nccc(COC(=O)NC(=N)N)c3F)CC2)nc1 [Example 1.101]	8.15
COc1cnc(C2CCN(c3nccc(COC(=O)NC(=N)N)c3F)CC2)nc1 [Example 1.071]	8.10
N=C(N)NC(=O)OCc1ccnc(N2CCC(N3CCCCC3=O)CC2)c1F [Example 1.046]	6.89
N=C(N)NC(=O)OCc1ccnc(N2CC=C(c3ncc(F)cn3)CC2)c1F [Example 1.042]	7.55
N=C(N)NC(=O)OCc1ccnc(N2CCN(c3cccc(F)c3)CC2)c1F [Example 1.044]	8.05

1. COc1cnc(N2CCN(c3nccc(COC(=O)NC(=N)N)c3F)CC2)nc1 [Example 1.073]
2. N=C(N)NC(=O)OCc1ccnc(N2CC(c3ccccn3)C2)c1F [Example 1.002]
3. Cc1cnc(C2CCN(c3nccc(COC(=O)NC(=N)N)c3F)CC2)o1 [Example 1.019]
4. N#Cc1ccc(N2CCN(c3nccc(COC(=O)NC(=N)N)c3F)CC2)c(F)c1 [Example 1.083]
Incoming: Sequence the entries by pIC50, beginning with the highest number. Write the labels, ordered according to the request.
Outgoing: 4, 1, 3, 2
(4: 8.40, 1: 8.00, 3: 7.08, 2: 6.76)

1. COC(=O)c1ccc(N2CCN(c3nccc(COC(=O)NC(=N)N)c3F)CC2)nc1 [Example 1.092]
2. COC(=O)c1ccc(N2CCN(c3nccc(COC(=O)NC(=N)N)c3F)CC2)nn1 [Example 1.094]
3. N=C(N)NC(=O)OCc1ccnc(N2CCN(c3ccccc3Cl)CC2)c1F [Example 1.076]
4. COc1ncc(N2CCN(c3nccc(COC(=O)NC(=N)N)c3F)CC2)cn1 [Example 1.072]
Incoming: # sort list by recorded pIC50, greatest to least The labels, placed in the requested order, form the answer.
Outgoing: 4, 1, 2, 3
(4: 8.40, 1: 8.05, 2: 7.85, 3: 7.41)
